- Species: Homo sapiens
- ASSAY METHOD TEXT: Selectivity for ROCK1 over MSK1
MEASURED QUANTITY: Selectivity ratio

Solved cases below.
MOLECULE	MEASURED NUMBER
CCn1c(-c2nonc2N)nc2cnc(Oc3cccc(C(C)=O)c3)cc21	12
CCn1c(-c2nonc2N)nc2cnc(Oc3cccc(NC(=O)c4ccccc4)c3)cc21	2.2

1: CCn1c(-c2nonc2N)nc2cnc(Oc3cccc(NC(=O)c4ccc(N(C)C)cc4)c3)cc21 [GSK-248233A]
2: CCn1c(-c2nonc2N)nc2cnc(Oc3cccc(S(C)(=O)=O)c3)cc21
IN: Please let me know which one, 1 or 2 , has a lower measured Selectivity ratio value. Pick one; state its label.
OUT: 2
(2: 3.9, 1: 13)

###

- ASSAY METHOD TEXT: Cmax in Sprague-Dawley rat at 0.85 mg/kg, iv
- Format: ADME, organism-based
- Set-up: dose 0.85 mg/kg, route intravenous
- SETTINGS: in vivo
MEASURED QUANTITY: Cmax (ng/mL)
// units = ng/mL; emit number, no label

IN: I would be grateful if you could share the reported Cmax for CCn1c(-c2nonc2N)nc2cnc(Oc3cccc(NC(=O)c4ccc(N(C)C)cc4)c3)cc21 [GSK-248233A] .
OUT: 18600

###

- ASSAY METHOD TEXT: Half life in Sprague-Dawley rat at 1.2 mg/kg, iv
- Format: ADME, organism-based
- Design: dose 1.2 mg/kg, route intravenous
- SETTINGS: in vivo
MEASURED QUANTITY: half-life (min)
// units = min; emit number, no label

IN: I would be grateful if you could share the reported half-life for CCn1c(-c2nonc2N)nc2cnc(Oc3cccc(NC(=O)c4ccccc4)c3)cc21 .
OUT: 576

###

- Organism: Homo sapiens
- ASSAY METHOD TEXT: Selectivity for ROCK1 over GSK3-beta
MEASURED QUANTITY: Selectivity ratio

Solved cases below.
CCn1c(-c2nonc2N)nc2cnc(OC)cc21 250
CCn1c(-c2nonc2N)nc2cnccc21 53

I: CCn1c(-c2nonc2N)nc2cnc(Oc3cccc(N)c3)cc21
II: CCn1c(-c2nonc2N)nc2cnc(Oc3cccc(S(C)(=O)=O)c3)cc21
IN: # argmax over Selectivity ratio for candidates I and II Pick one; state its label.
OUT: I
(I: 300, II: 150)

###

- ASSAY METHOD TEXT: Oral bioavailability in Sprague-Dawley rat at 2.2 mg/kg, po
- Type: ADME, organism-based
- SETTINGS: in vivo
MEASURED QUANTITY: bioavailability (%)

CCn1c(-c2nonc2N)nc2cnc(Oc3cccc(NC(=O)c4ccc(CN5CCOCC5)cc4)c3)cc21 64

1: CCn1c(-c2nonc2N)nc2cnc(Oc3cccc(NC(=O)c4ccc(CN)cc4)c3)cc21
2: CCn1c(-c2nonc2N)nc2cnc(Oc3cccc(NC(=O)c4ccc(CN(C)C)cc4)c3)cc21
IN: Please let me know which one, 1 or 2 , has a lower measured bioavailability value. Pick one; state its label.
OUT: 1
(1: 4%, 2: 47%)

###

- ASSAY METHOD TEXT: Cmax in Sprague-Dawley rat at 1.6 mg/kg, iv
- Type: ADME, organism-based
- Set-up: dose 1.6 mg/kg, route intravenous
- SETTINGS: in vivo
MEASURED QUANTITY: Cmax (ng/mL)
// units = ng/mL; emit number, no label

IN: I would be grateful if you could share the reported Cmax for CCn1c(-c2nonc2N)nc2cnc(Oc3cccc(NC(=O)c4ccc(OCCN5CCOCC5)cc4)c3)cc21 [GSK-269962A] .
OUT: 1270

###

- ASSAY METHOD TEXT: Plasma concentration in spontaneously hypertensive rat at 3 mg/kg, po after 1 hr
- Assay type: ADME, organism-based
- Design: dose 3 mg/kg, route oral
MEASURED QUANTITY: concentration at 1 h (µg/mL)
// units = µg/mL; emit number, no label

IN: I would be grateful if you could share the reported concentration at 1 h for CCn1c(-c2nonc2N)nc2cnc(Oc3cccc(NC(=O)c4ccc(OCCN5CCOCC5)cc4)c3)cc21 [GSK-269962A] .
OUT: 0.33

###

- ASSAY METHOD TEXT: Cmax in Sprague-Dawley rat at 2.2 mg/kg, po
- Format: ADME, organism-based
- Design: dose 2.2 mg/kg, route oral
- SETTINGS: in vivo
MEASURED QUANTITY: Cmax (ng/mL)

CCn1c(-c2nonc2N)nc2cnc(Oc3cccc(NC(=O)c4ccc(CN(C)C)cc4)c3)cc21 160

P: CCn1c(-c2nonc2N)nc2cnc(Oc3cccc(NC(=O)c4ccc(CN)cc4)c3)cc21
Q: CCn1c(-c2nonc2N)nc2cnc(Oc3cccc(NC(=O)c4ccc(CN5CCOCC5)cc4)c3)cc21
IN: # argmax over Cmax for candidates P and Q Pick one; state its label.
OUT: Q

###

- ASSAY METHOD TEXT: Half life in Sprague-Dawley rat at 0.85 mg/kg, iv
- Format: ADME, organism-based
- Set-up: dose 0.85 mg/kg, route intravenous
- SETTINGS: in vivo
MEASURED QUANTITY: half-life (h)
// units = h; emit number, no label

IN: I would be grateful if you could share the reported half-life for CCn1c(-c2nonc2N)nc2cnc(Oc3cccc(NC(=O)c4ccc(N(C)C)cc4)c3)cc21 [GSK-248233A] .
OUT: 8.6

###

- ASSAY METHOD TEXT: Cmax in Sprague-Dawley rat at 1.1 mg/kg, iv
- Format: ADME, organism-based
- Design: dose 1.1 mg/kg, route intravenous
- SETTINGS: in vivo
MEASURED QUANTITY: Cmax (ng/mL)
// units = ng/mL; emit number, no label

IN: I would be grateful if you could share the reported Cmax for CCn1c(-c2nonc2N)nc2cnc(Oc3cccc(NC(=O)c4ccc(CN5CCOCC5)cc4)c3)cc21 .
OUT: 1100

###

- ASSAY METHOD TEXT: Oral bioavailability in Sprague-Dawley rat at 2.1 mg/kg, po
- Type: ADME, organism-based
- SETTINGS: in vivo
MEASURED QUANTITY: bioavailability (%)
// units = %; emit number, no label

IN: I would be grateful if you could share the reported bioavailability for CCn1c(-c2nonc2N)nc2cnc(Oc3cccc(NC(=O)c4ccc(N5CCOCC5)cc4)c3)cc21 .
OUT: 23

###

- ASSAY METHOD TEXT: Clearance in Sprague-Dawley rat at 0.85 mg/kg, iv
- Type: ADME, organism-based
- Design: dose 0.85 mg/kg, route intravenous
- SETTINGS: in vivo
MEASURED QUANTITY: clearance (mL/min/kg)
// units = mL/min/kg; emit number, no label

IN: I would be grateful if you could share the reported clearance for CCn1c(-c2nonc2N)nc2cnc(Oc3cccc(NC(=O)c4ccc(N(C)C)cc4)c3)cc21 [GSK-248233A] .
OUT: 0.14

###

- ASSAY METHOD TEXT: Plasma concentration in spontaneously hypertensive rat at 3 mg/kg, po after 4 hrs
- Assay type: ADME, organism-based
- Set-up: dose 3 mg/kg, route oral
MEASURED QUANTITY: concentration at 4 h (ng/mL)
// units = ng/mL; emit number, no label

IN: I would be grateful if you could share the reported concentration at 4 h for CCn1c(-c2nonc2N)nc2cnc(Oc3cccc(NC(=O)c4ccc(OCCN5CCOCC5)cc4)c3)cc21 [GSK-269962A] .
OUT: 150

###

- ASSAY SYSTEM: Rho-associated protein kinase 1 (Homo sapiens)
- Sequence (Q13464 whole entry): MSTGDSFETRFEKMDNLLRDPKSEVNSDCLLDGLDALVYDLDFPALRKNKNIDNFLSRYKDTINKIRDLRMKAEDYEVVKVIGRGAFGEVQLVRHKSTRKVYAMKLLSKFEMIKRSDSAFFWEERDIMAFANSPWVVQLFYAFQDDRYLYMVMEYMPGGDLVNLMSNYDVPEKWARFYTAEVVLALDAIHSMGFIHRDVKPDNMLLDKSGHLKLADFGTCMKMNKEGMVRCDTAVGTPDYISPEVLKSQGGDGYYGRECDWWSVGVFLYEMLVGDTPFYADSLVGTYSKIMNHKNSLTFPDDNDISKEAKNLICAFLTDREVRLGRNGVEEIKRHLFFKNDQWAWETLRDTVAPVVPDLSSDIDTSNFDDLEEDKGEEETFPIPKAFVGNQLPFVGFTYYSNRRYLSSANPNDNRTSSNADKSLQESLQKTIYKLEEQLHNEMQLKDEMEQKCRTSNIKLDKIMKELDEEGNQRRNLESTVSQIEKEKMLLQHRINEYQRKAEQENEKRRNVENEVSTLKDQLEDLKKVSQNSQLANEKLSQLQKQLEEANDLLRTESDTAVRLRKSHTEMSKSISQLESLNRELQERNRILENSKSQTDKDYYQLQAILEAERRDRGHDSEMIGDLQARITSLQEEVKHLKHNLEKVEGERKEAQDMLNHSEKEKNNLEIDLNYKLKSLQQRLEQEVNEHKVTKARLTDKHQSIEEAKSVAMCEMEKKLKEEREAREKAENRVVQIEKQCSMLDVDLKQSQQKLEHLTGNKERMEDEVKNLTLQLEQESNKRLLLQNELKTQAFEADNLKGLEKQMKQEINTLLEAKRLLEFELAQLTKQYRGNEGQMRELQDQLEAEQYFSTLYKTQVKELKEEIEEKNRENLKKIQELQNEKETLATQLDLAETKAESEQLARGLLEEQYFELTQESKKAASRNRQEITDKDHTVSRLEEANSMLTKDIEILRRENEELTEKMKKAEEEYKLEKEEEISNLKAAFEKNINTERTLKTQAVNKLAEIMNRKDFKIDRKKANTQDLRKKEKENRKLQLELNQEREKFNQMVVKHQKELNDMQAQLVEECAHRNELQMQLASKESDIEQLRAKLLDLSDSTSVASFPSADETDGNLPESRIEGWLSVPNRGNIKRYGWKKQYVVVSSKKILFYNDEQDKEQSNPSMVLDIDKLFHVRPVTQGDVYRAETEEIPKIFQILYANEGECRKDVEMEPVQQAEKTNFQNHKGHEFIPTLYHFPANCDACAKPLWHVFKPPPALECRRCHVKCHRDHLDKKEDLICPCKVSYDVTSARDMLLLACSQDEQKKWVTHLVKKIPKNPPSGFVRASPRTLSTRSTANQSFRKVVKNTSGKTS
- ASSAY METHOD TEXT: Inhibition of human ROCK1 in Sf9 cells
- Format: cell-based
MEASURED QUANTITY: IC50 (nM)

I: CCn1c(-c2nonc2N)nc2cnc(Oc3cccc(NC(=O)c4ccccc4)c3)cc21
II: CCn1c(-c2nonc2N)nc2cnc(Oc3cccc(N)c3)cc21
IN: # argmax over IC50 for candidates I and II Pick one; state its label.
OUT: II

###

- ASSAY METHOD TEXT: Cmax in Sprague-Dawley rat at 2.4 mg/kg, iv
- Type: ADME, organism-based
- Parameters: dose 2.4 mg/kg, route intravenous
- SETTINGS: in vivo
MEASURED QUANTITY: Cmax (ng/mL)
// units = ng/mL; emit number, no label

IN: I would be grateful if you could share the reported Cmax for CCn1c(-c2nonc2N)nc2cnc(Oc3cccc(NC(=O)c4ccc(OCCN(C)C)cc4)c3)cc21 .
OUT: 410

###

- ASSAY METHOD TEXT: Volume of distribution in Sprague-Dawley rat at 1.2 mg/kg, iv
- Format: ADME, organism-based
- Design: dose 1.2 mg/kg, route intravenous
- SETTINGS: in vivo, read-out: Vdss
MEASURED QUANTITY: Vd (L/kg)
// units = L/kg; emit number, no label

IN: I would be grateful if you could share the reported Vd for CCn1c(-c2nonc2N)nc2cnc(Oc3cccc(NC(=O)c4ccccc4)c3)cc21 .
OUT: 0.16
